System: MS2 coat protein
Test: apparent KD of MS2 coat protein; designed switch direction (-1 OFF switch, 1 ON switch): -1; higher = weaker reporter binding
Settings: Eterna round: R95; input ligand: microRNA oligo, concentration not stated
observable: apparent KD of MS2 coat protein (nM)
Field format: number, assumed nM, no unit text.

>  <residueSequence>
GGUUGGCGAGGAUAUACAUGAGGAUCACCCAUGUGAGAGAAAAAAGUGAGGAAGAAAAGUAGAAGGCGUUGACG [salish99_ex3_r3_052] (puzzle: Exclusion 3)

>  <apparent KD of MS2 coat protein / nM>
48.3

$$$$
>  <residueSequence>
AGACAGUCAGGAUAUACAUGAGGAUCACCCAUGUUAAGAAGAGAAAGGGCAGGAAGAGGUAGAAGGGACAAGAA [JR_Exclu3_Sub033] (puzzle: Exclusion 3)

>  <apparent KD of MS2 coat protein / nM>
23.6

$$$$

Now look at this entry.
Enquiry: Which apparent KD of MS2 coat protein is reported with MS2 coat protein for this entry: CCGGAAUUGCAGGAUAUAGGAGUCGAUAGACACCUAGAAGGGCAGACAUGAGGAUCACCCAUGUGUCCUACCGG [Fiskers Ex 6 - 84] (puzzle: Exclusion 6) ?
Return: 17.4
